# TEST TARGET: KRAS WT (Homo sapiens, UniProt P01116+P62937)
# Sequence (P01116 1-169 isoform P01116-2 limits assumed, one chain of several): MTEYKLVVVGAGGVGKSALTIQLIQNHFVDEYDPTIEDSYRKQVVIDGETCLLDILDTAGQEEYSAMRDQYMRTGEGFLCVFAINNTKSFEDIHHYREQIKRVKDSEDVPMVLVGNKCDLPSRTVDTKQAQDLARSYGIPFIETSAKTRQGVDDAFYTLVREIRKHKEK
# PROTOCOL DESCRIPTION: Ras-Raf disruption / FRET / MOA assay (BRAF RBD)
# Format: biochemical
# CONDITION SET: Ras-Raf disruption, with Cyclophilin A; read-out: KRAS WT FRET data IC50
pIC50: −log10 of the molar value.
ENDPOINT: pIC50

Worked examples follow.
MOLECULE: CCCN=C=NCCC(=O)N(C)[C@H](C(=O)N[C@H]1Cc2cccc(c2)-c2ccc3c(c2)c(c(-c2cnccc2COC)n3CC)CC(C)(C)COC(=O)[C@@H]2CCCN(N2)C1=O)C(C)C
pIC50: 5.00 to 6.00

MOLECULE: CCn1c(-c2cccnc2[C@H](C)OC)c2c3cc(ccc31)-c1csc(n1)C[C@H](NC(=O)[C@H](C(C)C)N(C)C(=O)N(C)[C@H]1CCCN(C(=O)[C@H]3CN3)C1)C(=O)N1CCC[C@H](N1)C(=O)OCC(C)(C)C2 (atropisomer, axis not shown)
pIC50: 6.00 to 7.00

MOLECULE: CCn1c(-c2cccnc2[C@H](C)OC)c2c3cc(ccc31)-c1csc(n1)C[C@H](NC(=O)[C@H](C(C)C)N(C)C(=O)N1CC(N(C)C(=O)[C@@H]3CN3)C1)C(=O)N1CCC[C@H](N1)C(=O)OCC(C)(C)C2 (atropisomer, axis not shown)
pIC50: 6.00 to 7.00

Input line: Value lookup for pIC50; key = CCn1c(-c2cccnc2[C@H](C)OC)c2c3cc(ccc31)-c1cccc(c1)C[C@H](NC(=O)[C@H](C(C)C)N(C)C(=O)CCN=C=NCc1ccccc1OC)C(=O)N1CCC[C@H](N1)C(=O)OCC(C)(C)C2
Output line: 5.00 to 6.00

---

# TEST TARGET: NRAS G12C (Homo sapiens, UniProt P01111+P62937, G12C)
# Sequence (P01111 whole entry G12C): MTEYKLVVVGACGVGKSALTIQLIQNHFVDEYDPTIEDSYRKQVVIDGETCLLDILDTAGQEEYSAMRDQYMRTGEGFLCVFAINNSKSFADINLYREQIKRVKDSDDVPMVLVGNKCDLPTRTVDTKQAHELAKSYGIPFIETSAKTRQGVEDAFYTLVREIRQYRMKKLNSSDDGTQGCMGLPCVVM
# Sequence (P62937 whole entry): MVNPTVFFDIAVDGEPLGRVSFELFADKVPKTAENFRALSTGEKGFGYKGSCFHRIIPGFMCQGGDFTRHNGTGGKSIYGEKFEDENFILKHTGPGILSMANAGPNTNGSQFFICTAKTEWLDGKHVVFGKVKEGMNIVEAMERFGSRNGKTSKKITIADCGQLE
# PROTOCOL DESCRIPTION: Ras-Raf disruption / FRET / MOA assay (BRAF RBD)
# Format: biochemical
# CONDITION SET: NRAS G12C FRET data IC50, NRAS G12C
Items are presented alongside their recorded IC50.

The cases that follow already have their IC50 on record.
COMPOUND: CCn1c(-c2cccnc2[C@H](C)OC)c2c3cc(ccc31)-c1cc(O)cc(c1)C[C@H](NC(=O)[C@H](C(C)C)N(C)C(=O)CN(C)C(=O)[C@H]1CN1CC1COC1)C(=O)N1CCC[C@H](N1)C(=O)OCC(C)(C)C2 (stereo partly shown) [Example 277]
TEST TARGET: NRAS G12C (Homo sapiens, UniProt P01111+P62937, G12C)
IC50: 10 to 100 nM
--
COMPOUND: CCn1c(-c2cccnc2[C@H](C)OC)c2c3cc(ccc31)-c1cc(O)cc(c1)C[C@H](NC(=O)[C@H](C1CCCC1)N(C)C(=O)CN(C)C(=O)[C@H]1CN1)C(=O)N1CCC[C@H](N1)C(=O)OCC(C)(C)C2 [Example 95]
TEST TARGET: NRAS G12C (Homo sapiens, UniProt P01111+P62937, G12C)
IC50: < 10 nM
--
COMPOUND: CCn1c(-c2cccnc2[C@H](C)OC)c2c3cc(ccc31)-c1cc(O)cc(c1)C[C@H](NC(=O)[C@H](C(C)C)N(C)C(=O)CN(C)C(=O)[C@H]1CN1CCO)C(=O)N1CCC[C@H](N1)C(=O)OCC(C)(C)C2 (stereo partly shown) [Example 161]
TEST TARGET: NRAS G12C (Homo sapiens, UniProt P01111+P62937, G12C)
IC50: < 10 nM

Input line: What IC50 value was documented for this compound, CCn1c(-c2cccnc2[C@H](C)OC)c2c3cc(ccc31)-c1cc(O)cc(c1)C[C@H](NC(=O)[C@H](C(C)C)N(C)C(=O)CN(C)C(=O)[C@@H]1CN1C1COC1)C(=O)N1CCC[C@H](N1)C(=O)OCC(C)(C)C2 (stereo partly shown) [Example 276] ?
Output line: < 10 nM
